Data origin, for the record: patent US7388014B2

System: Hs 578T
Assay: Cell growth inhibition assay (SRB), Hs 578T
Assay type: cell-based, Human
Conditions: Hs 578T (breast), 96 hours
PARAMETER: IC50

{"columns": ["MOLECULE", "IC50"],
 "data": [
  ["Cc1cc(C)c(Nc2ncnc3ccc([N+](=O)[O-])cc23)c(C)c1 [RX-1122]", "1.35 µM"],
  ["FC(F)(F)c1ccccc1CNc1ncnc2ccc(I)cc12 [RX-1682]", "> 3 µM"],
  ["Cn1cnc2cc3ncnc(NCCc4ccccc4F)c3cc21 [RX-1857]", "> 3 µM"],
  ["Fc1cccc(CCNc2ncnc3ccc(I)cc23)c1 [RX-1668]", "0.89 µM"]
]}

Quick note, IC50 for c1ccc(CCCCNc2ncnc3cc4[nH]cnc4cc23)cc1 [RX-1842] landed at 1.05 µM

Noted for Fc1cccc(CCNc2ncnc3ccc(Br)cc23)c1 [RX-1242] : its IC50 reads 1.03 µM

// IC50 value for Fc1cccc(CCNc2ncnc3ccccc23)c1 [RX-1195] : 0.44 µM

Please fill in: IC50 reported for Fc1cc(Cl)ccc1Nc1ncnc2ccc(I)cc12 [RX-1701] = > 3 µM

Notebook: Brc1ccc2ncnc(NCCCCc3ccccc3)c2c1 [RX-1251] , IC50 read as 0.43 µM

Notebook: Ic1ccc2ncnc(NCCCCc3ccccc3)c2c1 [RX-1670] , IC50 read as 1.35 µM

Entry FC(F)(F)c1ccccc1CNc1ncnc2ccc(Br)cc12 [RX-1260] , IC50 reported as > 3 µM

* * *

Test system: U251
Experiment: Cell growth inhibition assay (SRB), U251
Assay type: cell-based, Human
Settings: U251 (brain), 96 hours
PARAMETER: IC50 (µM)
The reply should be a number in µM, with the unit left off.

{"columns": ["TEST_SMILES", "PARAMETER", "NUMERIC_RESULT"],
 "data": [
  ["Ic1ccc2ncnc(NC3CCCCC3)c2c1", "IC50", 0.51],
  ["Fc1cccc(CCNc2ncnc3ccccc23)c1", "IC50", 1.95],
  ["c1ccc(CCCCNc2ncnc3cc4[nH]cnc4cc23)cc1", "IC50", 1.93],
  ["FC(F)(F)c1ccccc1CNc1ncnc2ccc(Br)cc12", "IC50", 0.69],
  ["Cc1cc(C)c(Nc2ncnc3ccc([N+](=O)[O-])cc23)c(C)c1", "IC50", 0.57]
]}

Entry Brc1ccc2ncnc(NCCCCc3ccccc3)c2c1 under U251 had IC50 of 0.42

# IC50 measured on U251 for item Cn1cnc2cc3ncnc(NCc4cccc(F)c4)c3cc21 = 0.91

The molecule Fc1cccc(CCNc2ncnc3ccc(Br)cc23)c1 , when measured on U251, yielded IC50 of 0.56

* * *

System: MDA-MB-231
Test: Cell growth inhibition assay (SRB), MDA-MB-231
Format: cell-based, Human
Settings: MDA-MB-231 (breast), 96 hours
IC50 values, listed per item
Record the value in µM, omitting the unit from your answer.

{"columns": ["COMPOUND", "TARGET_OR_TEST_SYSTEM", "QUANTITY_UNIT", "IC50"],
 "data": [
  ["Cc1cc(C)c(Nc2ncnc3ccc([N+](=O)[O-])cc23)c(C)c1 [RX-1122]", "MDA-MB-231", "µM", 0.73],
  ["Fc1cccc(CCNc2ncnc3ccc(Br)cc23)c1 [RX-1242]", "MDA-MB-231", "µM", 0.88],
  ["Fc1cccc(CCNc2ncnc3ccccc23)c1 [RX-1195]", "MDA-MB-231", "µM", 0.46]
]}

Turning to the following compound.
compound c1ccc(CCCCNc2ncnc3cc4[nH]cnc4cc23)cc1 [RX-1842] , IC50 observed: 0.84

* * *

Below, each entry is listed with its recorded IC50.
Test system: MDA-MB-231
Experiment: Cell growth inhibition assay (SRB), MDA-MB-231
Type: cell-based, Human
Conditions: MDA-MB-231 (breast), 96 hours

{"columns": ["TEST_SMILES", "IC50"],
 "data": [
  ["Ic1ccc2ncnc(NC3CCCCC3)c2c1", "> 3 µM"],
  ["Cn1cnc2cc3ncnc(NCCc4cccc(F)c4)c3cc21", "> 3 µM"],
  ["Cc1cccc2ncnc(NCCc3ccc(F)cc3)c12", "0.47 µM"],
  ["Fc1cc(Cl)ccc1Nc1ncnc2ccc(Br)cc12", "> 3 µM"],
  ["Cn1cnc2cc3ncnc(NCCc4ccccc4F)c3cc21", "> 3 µM"]
]}

# compound FC(F)(F)c1ccccc1CNc1ncnc2ccc(I)cc12 ; its IC50 = > 3 µM

Recorded result, Brc1ccc2ncnc(NCCCCc3ccccc3)c2c1 , IC50: 0.34 µM

Value of IC50 reported for the compound FC(F)(F)c1ccccc1CNc1ncnc2ccc(Br)cc12 is > 3 µM

The compound listed as CC(C)Nc1ncnc2cc3[nH]cnc3cc12 has a reported IC50 of 0.53 µM

For reference, reported IC50 for Ic1ccc2ncnc(NCCCCc3ccccc3)c2c1 stands at 1.06 µM

IC50 reported for this compound Fc1cc(Cl)ccc1Nc1ncnc2ccc(I)cc12 : > 3 µM

* * *

Reported IC50 values follow for various compounds
Test system: U251
Experiment: Cell growth inhibition assay (SRB), U251
Format: cell-based, Human
Settings: U251 (brain), 96 hours
// return numeric value only (unit: µM, not printed)

In plain terms, Cn1cnc2cc3ncnc(NCCc4cccc(F)c4)c3cc21 has a documented IC50 of 0.9

The reported IC50 of the compound Fc1cccc(CCNc2ncnc3ccc(I)cc23)c1 was 0.27

// CC(C)Nc1ncnc2cc3[nH]cnc3cc12 : IC50 value = 0.13
